Source listed as patent US9890133B2.

Recorded CC50, one value per entry.
protocol_summary: in vitro
condition: human

Recorded CC50, per entry:
Cc1nn(C)c2ncc(C(=O)NC34C(=O)c5c(N)cccc5C3(O)Oc3cc(C(C)C)ccc34)cc12 (stereo not shown)	> 10 µg/mL
CCCCCCC(=O)NC12C(=O)c3c(N)cccc3C1(OC(=O)CCCCCC)Oc1cc(C(C)C)ccc12 (stereo not shown)	7.7 µg/mL
CC(C)c1ccc2c(c1)OC1(O)c3cccc(N)c3C(=O)C21NC(=O)c1ccc(C#N)cn1 (stereo not shown)	> 10 µg/mL
COC(=O)c1ccc(C(=O)NC23C(=O)c4c(N)cccc4C2(O)Oc2cc(C(C)C)ccc23)cc1 (stereo not shown)	> 10 µg/mL
CC(C)c1ccc2c(c1)OC1(O)c3cccc(N)c3C(=O)C21NC(=O)c1cccn2nnnc12 (stereo not shown)	4.94 µg/mL
CC(C)c1ccc2c(c1)OC1(O)c3cccc(N)c3C(=O)C21NC(=O)Nc1ccc(F)cc1 (stereo not shown)	> 10 µg/mL

Here is another molecule to look at.
Recorded CC50 (molecule COc1cncc(C(=O)NC23C(=O)c4c(N)cccc4C2(O)Oc2cc(C(C)C)ccc23)c1 (stereo not shown) ): > 10 µg/mL

---

Recorded melting point, one value per entry.

CC(=O)Nc1cccc2c1C(=O)[C@@]1(NC(C)=O)c3ccc(C(C)C)cc3O[C@@]21O [Example 87]	205 to 207 °C
Cc1cc2c(cc1C)C1(O)Oc3cc(C(C)C)ccc3C1(O)C2=O (stereo not drawn) [Example 82]	138 to 140 °C
CC(=O)O[C@@]12Oc3cc(C(C)C)ccc3[C@]1(OC(C)=O)C(=O)c1c(NS(C)(=O)=O)cccc12 (stereo in doubt) [Example 54]	96 to 100 °C
CC(C)c1ccc2c(c1)OC1(O)c3cc(F)c(F)cc3C(=O)C21O (stereo not drawn) [Example 42]	134 to 136 °C
Cc1cc2c(cc1C)C1(O)C(=O)c3ccccc3C1(O)O2 (stereo not drawn) [Example 4]	198 to 200 °C

Recorded melting point (compound C=CC(=O)OC12Oc3cc(C(C)C)ccc3C1(O)C(=O)c1ccccc12 (stereo not drawn) [Example 35] ): 95 to 97 °C

Recorded melting point (compound COC(=O)c1ccc2c(c1)C1(O)C(=O)c3ccccc3C1(O)O2 (stereo not drawn) [Example 39] ): 220 to 223 °C

Recorded melting point (compound CCCc1ccc2c(c1)C1(O)C(=O)c3ccccc3C1(O)O2 (stereo not drawn) [Example 17] ): 126 to 127 °C

Recorded melting point (compound CC(C)OC(=O)Nc1cccc2c1C(=O)C1(O)c3ccc(C(C)C)cc3OC21O (stereo not drawn) [Example 29] ): 200 to 202 °C

Recorded melting point (compound CC(C)c1ccc2c(c1)O[C@@]1(O)c3cccc([N+](=O)[O-])c3C(=O)[C@@]21O [Example 80] ): 186 to 188 °C

Recorded melting point (compound CC(C)(C)c1cc(C(C)(C)C)c2c(c1)C1(O)C(=O)c3ccccc3C1(O)O2 (stereo not drawn) [Example 24] ): 200 to 203 °C

Recorded melting point (compound CCC(C)c1ccc2c(c1)C1(O)C(=O)c3ccccc3C1(O)O2 (stereo not drawn) [Example 19] ): 134 to 136 °C

Recorded melting point (compound CC(C)c1ccc2c(c1)O[C@@]1(O)c3cccc(N)c3C(=O)[C@@]21O [Example 46] ): 180 to 182 °C

Recorded melting point (compound COC(=O)Nc1cccc2c1C(=O)C1(O)c3ccc(C(C)C)cc3OC21O (stereo not drawn) [Example 49] ): 96 to 99 °C

Recorded melting point (compound CCN(CC)C(=O)OC12C(=O)c3ccccc3C1(O)Oc1cc(C(C)C)ccc12 (stereo not drawn) [Example 41] ): 101 to 104 °C

Recorded melting point (compound O=C1c2ccccc2C2(O)Oc3c(-c4ccccc4)cccc3C12O (stereo not drawn) [Example 13] ): 182 to 183 °C

Recorded melting point (compound CCc1ccc2c(c1)C1(O)C(=O)c3ccccc3C1(O)O2 (stereo not drawn) [Example 18] ): 157 to 159 °C

Recorded melting point (compound CC(C)c1ccc2c(c1)O[C@@]1(O)c3cc4ccccc4cc3C(=O)[C@@]21O [Example 44] ): 186 to 189 °C

---

Recorded melting point, one value per entry.

O=C1c2ccccc2C2(O)Oc3c(ccc(Cl)c3Cl)C12O (stereo not drawn) [Example 8]	142 to 150 °C

Recorded melting point (molecule CC(C)c1ccc2c(c1)OC1(O)c3c(N)ccc(N)c3C(=O)C21O (stereo not drawn) [Example 61] ): 223 to 231 °C

Recorded melting point (molecule CC(=O)O[C@@]12Oc3cc(C(C)C)ccc3[C@]1(OC(C)=O)C(=O)c1c(N)cccc12 [Example 47] ): 220 to 223 °C

Recorded melting point (molecule O=C1c2ccccc2C2(O)Oc3c(ccc4c3CCCC4)C12O (stereo not drawn) [Example 31] ): 252 to 254 °C

---

protocol_summary: in vitro
condition: human, Picorana CC50
Recorded CC50, one value per entry.
Provide the reading as a plain figure in µg/mL.

CC(C)c1ccc2c(c1)OC1(O)c3cccc(N)c3C(=O)C21NC(=O)C(=O)c1cccs1 (stereo not shown)	8.64
CC(C)c1ccc2c(c1)OC1(O)c3cccc(N)c3C(=O)C21NC(=O)c1ccncc1 (stereo not shown)	48.3

Here is another molecule to look at.
Recorded CC50 (molecule CC(C)c1ccc2c(c1)OC1(OCc3ccccc3)c3ccccc3C(=O)C21O (stereo not shown) ): 8.16

---

measure: melting point

Recorded melting point, per entry:
CC(=O)OC12Oc3cc(C(C)C)ccc3C1(OC(C)=O)C(=O)c1c([N+](=O)[O-])cccc12 (stereo not shown)	201 to 203 °C
COc1ccc2c(c1)C1(O)C(=O)c3ccccc3C1(O)O2 (stereo not shown)	186 to 189 °C
CC(=O)Nc1cccc2c1C(=O)C1(N)c3ccc(C(C)C)cc3OC21O (stereo not shown)	152 to 156 °C
CC(=O)OC12Oc3c(C(C)(C)C)cc(C(C)(C)C)cc3C1(OC(C)=O)C(=O)c1ccccc12 (stereo not shown)	242 to 247 °C
CC(C)c1ccc2c(c1)OC1(OC(=O)c3ccco3)c3ccccc3C(=O)C21O (stereo not shown)	116 to 120 °C
CC(=O)OC12Oc3cc(C)ccc3C1(OC(C)=O)C(=O)c1ccccc12 (stereo not shown)	167 to 169 °C
CCOC(=O)Cc1cc(OC)c2c(c1)C1(O)C(=O)c3ccccc3C1(O)O2 (stereo not shown)	133 to 136 °C
CC(C)c1ccc2c(c1)OC1(O)c3ccc(N)c(N)c3C(=O)C21O (stereo not shown)	163 to 166 °C
O=C1c2ccccc2C2(O)Oc3ccc([N+](=O)[O-])cc3C12O (stereo not shown)	206 to 207 °C
CCc1ccc2c(c1)OC1(O)c3ccccc3C(=O)C21O (stereo not shown)	168 to 169 °C

Recorded melting point (compound CC(C)c1ccc2c(c1)OC1(OCCO)c3ccccc3C(=O)C21O (stereo not shown) ): 100 to 105 °C

Recorded melting point (compound COC(=O)N[C@@]12C(=O)c3ccccc3[C@]1(O)Oc1cc(C(C)C)ccc12 ): 161 to 163 °C

Recorded melting point (compound O=C1c2ccccc2C2(O)Oc3cc4ccccc4cc3C12O (stereo not shown) ): 220 to 221 °C

Recorded melting point (compound Cc1ccc2c(c1)OC1(O)c3ccccc3C(=O)C21O (stereo not shown) ): 145 to 147 °C

Recorded melting point (compound CC(=O)OC12Oc3cc(C(C)C)ccc3C1(OC(C)=O)C(=O)c1ccccc12 (stereo not shown) ): 138 to 140 °C

Recorded melting point (compound COc1cc2c(cc1OC)[C@]1(O)Oc3cc(C(C)C)ccc3[C@]1(O)C2=O ): 127 to 129 °C

---

Recorded CC50, one value per entry.
protocol_summary: in vitro
condition: human

CC(C)c1ccc2c(c1)OC1(O)c3cccc(N)c3C(=O)C21NC(=O)Cc1ccc(-c2ccccc2)cc1 (centres unmarked)	5.85 µg/mL

Recorded CC50 (compound CC(C)c1ccc2c(c1)OC1(O)c3cccc(N)c3C(=O)C21NC(=O)c1nccc2ccccc12 (centres unmarked) ): > 10 µg/mL

Recorded CC50 (compound CCOC(=O)OC12Oc3cc(C(C)C)ccc3C1(NC(C)=O)C(=O)c1c(N)cccc12 (centres unmarked) ): 43.4 µg/mL

Recorded CC50 (compound CC(C)c1ccc2c(c1)OC1(O)c3cccc(N)c3C(=O)C21NC(=O)c1ccco1 (centres unmarked) ): > 10 µg/mL

Recorded CC50 (compound CC(C)C(=O)NC12C(=O)c3c(N)cccc3C1(O)Oc1cc(C(C)C)ccc12 (centres unmarked) ): 53.9 µg/mL

Recorded CC50 (compound CCCCC(=O)NC12C(=O)c3c(N)cccc3C1(O)Oc1cc(C(C)C)ccc12 (centres unmarked) ): 20.6 µg/mL

Recorded CC50 (compound CC(C)c1ccc2c(c1)OC1(O)c3ccccc3C(=O)C21NC(=O)c1ccncn1 (centres unmarked) ): > 10 µg/mL

Recorded CC50 (compound CC(C)c1ccc2c(c1)OC1(O)c3cccc(N)c3C(=O)C21NC(=O)c1ccc[nH]1 (centres unmarked) ): > 10 µg/mL
